STUDY_SYSTEM: T1, recombinant biotinylated human CD137 protein (Fc-fusion protein, R&D Systems 838-4B) (human, UniProt Q07011 24-186, biotinylated (site not stated))
T1 construct: Bought Fc fusion; The ELISA used the same antigen as the panning; also called CD137-Fc; biotinylated CD137; not shown: Fc part of the bought fusion protein
TEST_DESCRIPTION: ELISA, bacterial lysate on plate-bound antigen, luminescence
REPORTED_ENDPOINT: ELISA CD137-Fc (RLU)
The reply should be a number in RLU, with the unit left off.

The recorded ELISA CD137-Fc (RLU) for ISOP120ER5P1H4 (designed binder, not shown: small tags and cut ends, FN3 domain (Centyrin); tested as E. coli lysate) LPAPKNLVVSRVTEDSARLSWTAPDAAFDSFNIMYLEDVQCGEAIVLTVPGSERSYDLTGLKPGTEYHVGINGVKGGLRSFPLSAIFTT is 1.07e+06

Looking up ISOP120BR5P1D8 (designed binder, not shown: small tags and cut ends, FN3 domain (Centyrin); tested as E. coli lysate) LPAPKNLVVSRVTEDSARLSWKNHTQEWEFDSFLIQYQESEKVGEAIVLTVPGSERSYDLTGLKPGTEYTVSIYGVPIAWLAWTSTSNPLSAIFTT , I see its ELISA CD137-Fc (RLU) listed as 942000

The binder identified as ISOP120HR5P1B4 (designed binder, not shown: small tags and cut ends, FN3 domain (Centyrin); tested as E. coli lysate) LPAPKNLVVSRVTEDSARLSWTAPDAAFDSFSIYYGEYYNLGEAIVLTVPGSERSYDLTGLKPGTEYVVTIYGVKGGGYSNPLSAIFTT registered its ELISA CD137-Fc (RLU) at 1.19e+06

Sure, the documented ELISA CD137-Fc (RLU) for ISOP120FR5P1F1 (designed binder, not shown: small tags and cut ends, FN3 domain (Centyrin); tested as E. coli lysate) LPAPKNLVVSRVTEDSARLSWTAPDAAFDSFTIYYFENENGGEAIVLTVPGSERSYDLTGLKPGTEYLVTIYGVKGCDWSDPLSAIFTT is 1.23e+06

Per the record, ISOP120BR5P1C9 (designed binder, not shown: small tags and cut ends, FN3 domain (Centyrin); tested as E. coli lysate) LPAPKNLVVSRVTEDSARLSWAWNRHDFDSFLIQYQESEKVGEAIVLTVPGSERSYDLTGLKPGTEYTVSIYGVHWTVLRPFIDSNPLSAIFTT has ELISA CD137-Fc (RLU) of 1.27e+06

The reported ELISA CD137-Fc (RLU) of the binder ISOP120GR5P1A11 (designed binder, not shown: small tags and cut ends, FN3 domain (Centyrin); tested as E. coli lysate) LPAPKNLVVSRVTEDSARLSWTAPDAAFDSFGIPYWEWTTEGEAIQLIVPGSERSYDLTGLKPATEYHVHIVGVKGGSFSEPLPADFTT was 1.05e+06

ELISA CD137-Fc (RLU) for ISOP120HR5P1A6 (designed binder, not shown: small tags and cut ends, FN3 domain (Centyrin); tested as E. coli lysate) LPAPKNLVVSRVTEDSARLSWTAPDGAFDSFEIYYLEGGRGEAIVLTVPGSERSYDLTGLKPGTEYLVTIYGIKCGWASNPLSAIFTT is 1.29e+06

# ELISA CD137-Fc (RLU) (binder: ISOP120GR5P1H11 (designed binder, not shown: small tags and cut ends, FN3 domain (Centyrin); tested as E. coli lysate) LPAPKNLVVSRVTEDSARLSWTAPDAAFDSFYIAYWEYWGNGEAIGLIVPGSERSYDLTGLKPGTEYHVHIVGVKGGAGSVPLWANFTT ) is 1.31e+06

Taken from patent US20220259289A1.
